# study_system: HLA-A*0301 (human)
# protocol_summary: inhibition of 125I-labeled standard peptide binding to purified HLA, gel filtration
Attribute: binding affinity ratio (IC50 of standard peptide / IC50 of test peptide)
Enter a number only.

Exam item: For the binder LSLHEDEDK (modifications not checked) [HPV16 E1 peptide … (position 620, 9 amino acids)] , what binding affinity ratio (IC50 of standard peptide / IC50 of test peptide) is on record?
Marked response: 0.0005

Exam item: For the binder LTNILNVLK (modifications not checked) [HPV16 E1 peptide … (position 191, 9 amino acids)] , what binding affinity ratio (IC50 of standard peptide / IC50 of test peptide) is on record?
Marked response: 0.0086

Exam item: For the binder GMVVLLLVR (modifications not checked) [HPV16 E1 peptide … (position 272, 9 amino acids)] , what binding affinity ratio (IC50 of standard peptide / IC50 of test peptide) is on record?
Marked response: 0.0036

Exam item: For the binder KAAMLAKFK (modifications not checked) [HPV16 E1 peptide … (position 204, 9 amino acids)] , what binding affinity ratio (IC50 of standard peptide / IC50 of test peptide) is on record?
Marked response: 0.11

Exam item: For the binder AICIEKQSR (modifications not checked) [HPV16 E1 peptide … (position 112, 9 amino acids)] , what binding affinity ratio (IC50 of standard peptide / IC50 of test peptide) is on record?
Marked response: 0.001

Source of measurements: patent US7026443
